Value source: paper PMC8044163

# Tested on: murine dermal fibroblasts
# ASSAY_EXPLANATION: RNA-Seq of newborn murine dermal fibroblasts
# Assay type: cell-based, mouse
# CONDITION_DETAILS: 10^−7 M, 24 h
# Text: All animal studies followed guidelines outlined by the NIH Guide for the Care and Use of Laboratory Animals and protocols were approved by the Institutional Animal Care and Use Committee at the NIEHS or the UAB. […] Skin samples from newborn C57BL/6 mice were collected at the NIEHS. Dermal fibroblasts were isolated from the skin of newborn mice, 1–2 day old. Briefly, we followed the protocols described previously. […]
MEASURED_ATTRIBUTE: Zfp618 expression level

[[record]]
compound = "CC(C)CCC[C@](C)(O)[C@H]1CC[C@H]2[C@@H]3CC=C4C[C@@H](O)CC[C@]4(C)[C@H]3CC[C@@]21C [20(OH)C, 20-hydroxycholesterol, reference compound]"
assay_result = 2.236

[[record]]
compound = "C=C1CCC(O)CC1=CC=C1CCCC2(C)C1CCC2C(C)(O)CC(O)CC(C)C (stereo not shown) [20,23(OH)2D3]"
assay_result = 1.583

[[record]]
compound = "C=C1C(=CC=C2CCCC3(C)C2CCC3C(C)(O)CC(O)CC(C)C)CC(O)CC1O (stereo not shown) [1,20,23(OH)3D3]"
assay_result = 1.3488

[[record]]
compound = "C=C1/C(=C\\C=C2/CCC[C@]3(C)[C@@H]([C@H](C)CCCC(C)(C)O)CC[C@@H]23)C[C@@H](O)C[C@@H]1O [1,25(OH)2D3, reference compound]"
assay_result = 1.668

